target.entity: αvβ3 (Homo sapiens, UniProt P05106+P06756)
Construct: expressed in transfected cells; host or cells: K562-αvβ3
Sequence (P06756 31-889 limits assumed): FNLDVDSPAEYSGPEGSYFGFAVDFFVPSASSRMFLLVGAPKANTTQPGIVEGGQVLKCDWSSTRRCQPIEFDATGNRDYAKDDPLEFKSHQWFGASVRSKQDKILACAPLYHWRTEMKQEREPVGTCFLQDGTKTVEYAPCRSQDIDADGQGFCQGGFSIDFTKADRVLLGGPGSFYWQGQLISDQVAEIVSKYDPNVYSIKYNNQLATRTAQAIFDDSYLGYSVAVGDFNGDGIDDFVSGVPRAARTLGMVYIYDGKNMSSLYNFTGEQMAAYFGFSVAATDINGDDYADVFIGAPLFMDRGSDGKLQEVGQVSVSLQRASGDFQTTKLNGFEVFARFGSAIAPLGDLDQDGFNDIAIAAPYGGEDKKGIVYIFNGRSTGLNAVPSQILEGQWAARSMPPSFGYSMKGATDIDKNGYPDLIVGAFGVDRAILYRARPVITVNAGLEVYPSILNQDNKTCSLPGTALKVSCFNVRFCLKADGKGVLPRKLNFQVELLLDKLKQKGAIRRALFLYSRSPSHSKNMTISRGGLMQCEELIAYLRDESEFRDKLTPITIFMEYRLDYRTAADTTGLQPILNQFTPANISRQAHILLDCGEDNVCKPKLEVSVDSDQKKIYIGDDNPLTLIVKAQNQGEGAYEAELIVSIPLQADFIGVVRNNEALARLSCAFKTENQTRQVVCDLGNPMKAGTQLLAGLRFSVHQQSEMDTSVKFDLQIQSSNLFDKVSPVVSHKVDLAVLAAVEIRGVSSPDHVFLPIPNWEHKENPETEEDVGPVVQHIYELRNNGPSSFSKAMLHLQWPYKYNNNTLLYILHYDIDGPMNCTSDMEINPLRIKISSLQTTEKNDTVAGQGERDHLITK
Sequence (P06756 891-1048 partner limits assumed): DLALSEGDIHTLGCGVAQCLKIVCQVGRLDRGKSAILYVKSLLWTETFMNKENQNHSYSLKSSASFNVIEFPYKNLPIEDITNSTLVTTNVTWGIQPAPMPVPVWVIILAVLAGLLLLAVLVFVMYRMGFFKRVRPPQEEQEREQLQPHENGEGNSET
Sequence (P05106 27-788): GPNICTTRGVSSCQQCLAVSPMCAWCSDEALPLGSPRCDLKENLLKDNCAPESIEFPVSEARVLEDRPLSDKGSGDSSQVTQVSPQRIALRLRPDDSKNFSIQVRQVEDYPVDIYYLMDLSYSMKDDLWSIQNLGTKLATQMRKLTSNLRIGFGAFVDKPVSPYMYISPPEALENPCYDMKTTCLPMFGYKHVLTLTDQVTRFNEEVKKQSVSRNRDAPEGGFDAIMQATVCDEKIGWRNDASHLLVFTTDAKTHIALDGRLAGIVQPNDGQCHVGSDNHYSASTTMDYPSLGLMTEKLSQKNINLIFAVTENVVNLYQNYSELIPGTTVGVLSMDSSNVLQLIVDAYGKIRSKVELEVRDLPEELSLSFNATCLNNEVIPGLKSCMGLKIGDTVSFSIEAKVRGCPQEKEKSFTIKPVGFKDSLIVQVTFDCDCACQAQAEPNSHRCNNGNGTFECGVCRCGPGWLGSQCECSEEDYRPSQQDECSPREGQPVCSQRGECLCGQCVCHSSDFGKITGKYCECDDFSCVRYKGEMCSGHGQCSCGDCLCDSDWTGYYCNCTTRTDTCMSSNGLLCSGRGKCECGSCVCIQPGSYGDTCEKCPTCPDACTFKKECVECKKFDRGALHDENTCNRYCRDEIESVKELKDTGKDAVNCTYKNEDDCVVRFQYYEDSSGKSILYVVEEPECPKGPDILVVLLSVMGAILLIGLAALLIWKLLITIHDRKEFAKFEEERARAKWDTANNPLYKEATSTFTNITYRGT
experiment.summary: Cell Adhesion Assay αvβ3
Format: cell-based
experimental.parameters: K562-αvβ3 cells, ligand LAP-b1, 2 mM MgCl2; read-out: mean affinity (pIC50) αvβ3 (converted)
reported.property: IC50 (µM)

# count of solved cases: 4
COC(C)(C)COc1cccc([C@H](CC(=O)O)CN2CC[C@@H](CCc3ccc4c(n3)NCCC4)C2)c1 [Example 4] : 0.2
O=C(O)C[C@H](CN1CC[C@@H](CCc2ccc3c(n2)NCCC3)C1)c1cccc(OC[C@H]2CCCO2)c1 [Example 14] : 0.0794
COCC(COC)Oc1cccc(C(CC(=O)O)CN2CC[C@@H](CCc3ccc4c(n3)NCCC4)C2)c1 (stereo partly drawn) [Example 17] : 0.398
CC(C)OCCOc1cccc([C@H](CC(=O)O)CN2CC[C@@H](CCc3ccc4c(n3)NCCC4)C2)c1 [Example 13] : 0.1

[I] COC[C@@H](C)Oc1cccc([C@H](CC(=O)O)CN2CC[C@@H](CCc3ccc4c(n3)NCCC4)C2)c1 [Example 12]
[II] COCCOc1cc(OCCF)cc(C(CC(=O)O)CN2CC[C@@H](CCc3ccc4c(n3)NCCC4)C2)c1 (stereo partly drawn) [Example 18]
[III] COCCCOc1cccc(C(CC(=O)O)CN2CC[C@@H](CCc3ccc4c(n3)NCCC4)C2)c1 (stereo partly drawn) [Example 19]
[IV] O=C(O)C[C@H](CN1CC[C@@H](CCc2ccc3c(n2)NCCC3)C1)c1cccc(OC[C@@H]2CCCO2)c1 [Example 15]
[V] CO[C@H](C)COc1cccc([C@H](CC(=O)O)CN2CC[C@@H](CCc3ccc4c(n3)NCCC4)C2)c1 [Example 2]
Exercise: Rank the items in ascending order with respect to IC50. List labels; respect the requested ordering.
Solution: V, IV, III, I, II

====

target.entity: αvβ8 (Homo sapiens, UniProt P06756+P26012)
Construct: expressed in transfected cells; host or cells: K562-αvβ8
Sequence (P06756 31-889 limits assumed): as the sequence (P06756 31-889 limits assumed) above
Sequence (P06756 891-1048 partner limits assumed): as the sequence (P06756 891-1048 partner limits assumed) above
Sequence (P26012 43-769): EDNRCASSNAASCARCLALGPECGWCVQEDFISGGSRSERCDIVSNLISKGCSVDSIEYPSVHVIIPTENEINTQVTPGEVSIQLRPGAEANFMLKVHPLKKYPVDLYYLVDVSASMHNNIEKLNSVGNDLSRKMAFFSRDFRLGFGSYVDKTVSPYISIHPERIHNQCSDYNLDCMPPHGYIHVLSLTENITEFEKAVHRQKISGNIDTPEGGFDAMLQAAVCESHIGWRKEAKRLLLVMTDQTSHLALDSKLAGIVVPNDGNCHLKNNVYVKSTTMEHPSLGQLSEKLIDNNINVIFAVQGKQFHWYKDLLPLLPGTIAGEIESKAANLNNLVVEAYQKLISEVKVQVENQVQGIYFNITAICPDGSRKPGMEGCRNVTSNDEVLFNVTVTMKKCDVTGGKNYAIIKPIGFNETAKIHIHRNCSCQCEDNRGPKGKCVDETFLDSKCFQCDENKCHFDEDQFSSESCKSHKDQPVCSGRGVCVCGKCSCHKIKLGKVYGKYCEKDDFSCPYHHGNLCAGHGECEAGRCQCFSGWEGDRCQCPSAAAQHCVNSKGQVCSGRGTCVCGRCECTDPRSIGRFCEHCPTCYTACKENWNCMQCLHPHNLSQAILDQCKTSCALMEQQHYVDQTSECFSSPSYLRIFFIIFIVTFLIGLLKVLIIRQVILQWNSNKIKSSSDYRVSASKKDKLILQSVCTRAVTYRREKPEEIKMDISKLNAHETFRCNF
experiment.summary: Cell Adhesion Assay αvβ8
Assay type: cell-based
experimental.parameters: K562-αvβ8 cells, ligand LAP-b1, 2 mM MgCl2; read-out: mean affinity (pIC50) αvβ8 (converted)
reported.property: IC50 (µM)

# count of solved cases: 3
CO[C@@H](C)COc1cccc([C@H](CC(=O)O)CN2CC[C@@H](CCc3ccc4c(n3)NCCC4)C2)c1 : 0.0158
COCC(COC)Oc1cccc(C(CC(=O)O)CN2CC[C@@H](CCc3ccc4c(n3)NCCC4)C2)c1 (some centres unmarked) : 0.02
COCC(C)(C)Oc1cccc([C@H](CC(=O)O)CN2CC[C@@H](CCc3ccc4c(n3)NCCC4)C2)c1 : 0.0158

[I] COC(C)(C)COc1cccc([C@H](CC(=O)O)CN2CC[C@@H](CCc3ccc4c(n3)NCCC4)C2)c1
[II] COCCOc1ccc(F)c([C@H](CC(=O)O)CN2CC[C@@H](CCc3ccc4c(n3)NCCC4)C2)c1
Exercise: Task for the reader: decide whether I or II has the larger IC50. # answer = label of selected item
Solution: II
(II: 0.1 µM, I: 0.0158 µM)

====

target.entity: αvβ6 (Homo sapiens, UniProt P06756+P18564)
Construct: expressed in transfected cells; host or cells: K562-αvβ6
Sequence (P06756 31-889 limits assumed): as the sequence (P06756 31-889 limits assumed) above
Sequence (P06756 891-1048 partner limits assumed): as the sequence (P06756 891-1048 partner limits assumed) above
Sequence (P18564 22-788): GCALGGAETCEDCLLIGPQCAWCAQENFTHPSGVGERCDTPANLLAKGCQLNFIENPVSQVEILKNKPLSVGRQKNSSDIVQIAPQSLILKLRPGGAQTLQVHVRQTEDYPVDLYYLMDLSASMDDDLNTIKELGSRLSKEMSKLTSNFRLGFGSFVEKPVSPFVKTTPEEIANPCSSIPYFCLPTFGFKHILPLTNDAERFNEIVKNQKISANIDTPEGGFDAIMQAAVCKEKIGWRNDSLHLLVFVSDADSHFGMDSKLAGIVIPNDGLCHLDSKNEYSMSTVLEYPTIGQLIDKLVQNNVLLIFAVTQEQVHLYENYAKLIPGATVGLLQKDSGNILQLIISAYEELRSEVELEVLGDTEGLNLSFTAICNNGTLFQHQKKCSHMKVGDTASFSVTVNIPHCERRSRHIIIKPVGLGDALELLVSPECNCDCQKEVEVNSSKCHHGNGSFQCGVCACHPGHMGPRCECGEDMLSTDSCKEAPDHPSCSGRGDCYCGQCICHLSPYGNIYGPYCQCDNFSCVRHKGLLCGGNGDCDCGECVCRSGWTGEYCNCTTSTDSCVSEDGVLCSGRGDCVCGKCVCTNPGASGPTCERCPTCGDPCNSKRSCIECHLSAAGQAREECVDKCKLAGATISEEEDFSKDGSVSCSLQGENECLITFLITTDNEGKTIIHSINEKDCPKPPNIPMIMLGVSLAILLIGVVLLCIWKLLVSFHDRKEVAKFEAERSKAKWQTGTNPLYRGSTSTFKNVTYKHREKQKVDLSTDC
experiment.summary: Cell Adhesion Assay αvβ6
Assay type: cell-based
experimental.parameters: K562-αvβ6 cells, ligand LAP-b1, 2 mM MgCl2; read-out: mean affinity (pIC50) αvβ6 (converted)
reported.property: IC50 (nM)

# count of solved cases: 5
COCCOc1cc(OCCOC)cc([C@H](CC(=O)O)CN2CC[C@@H](CCc3ccc4c(n3)NCCC4)C2)c1 [Example 8] : 3.16
CO[C@@H](C)COc1cccc([C@H](CC(=O)O)CN2CC[C@@H](CCc3ccc4c(n3)NCCC4)C2)c1 [Example 3] : 2.51
COCCOc1ccc(F)c([C@H](CC(=O)O)CN2CC[C@@H](CCc3ccc4c(n3)NCCC4)C2)c1 [Example 16] : 7.94
COCCCOc1cccc(C(CC(=O)O)CN2CC[C@@H](CCc3ccc4c(n3)NCCC4)C2)c1 (stereo partly drawn) [Example 19] : 10
CO[C@H](C)COc1cccc([C@H](CC(=O)O)CN2CC[C@@H](CCc3ccc4c(n3)NCCC4)C2)c1 [Example 2] : 2.51

[a] COCCOc1cc(OCCF)cc(C(CC(=O)O)CN2CC[C@@H](CCc3ccc4c(n3)NCCC4)C2)c1 (stereo partly drawn) [Example 18]
[b] COCCOc1cccc([C@H](CC(=O)O)CN2CC[C@@H](CCc3ccc4c(n3)NCCC4)C2)c1 [Example 1]
Exercise: Identify the entry with the smaller IC50: a or b . # answer = label of selected item
Solution: b
(b: 3.16 nM, a: 5.01 nM)

[1] O=C(O)C[C@H](CN1CC[C@@H](CCc2ccc3c(n2)NCCC3)C1)c1cccc(OC[C@H]2CCCO2)c1 [Example 14]
[2] COCC(COC)Oc1cccc(C(CC(=O)O)CN2CC[C@@H](CCc3ccc4c(n3)NCCC4)C2)c1 (stereo partly drawn) [Example 17]
Exercise: Identify the entry with the smaller IC50: 1 or 2 . # answer = label of selected item
Solution: 1

[a] CC(C)OCCOc1cccc([C@H](CC(=O)O)CN2CC[C@@H](CCc3ccc4c(n3)NCCC4)C2)c1 [Example 13]
[b] O=C(O)C[C@H](CN1CC[C@@H](CCc2ccc3c(n2)NCCC3)C1)c1cccc(OC[C@@H]2CCCO2)c1 [Example 15]
Exercise: Identify the entry with the smaller IC50: a or b . # answer = label of selected item
Solution: b
(b: 5.01 nM, a: 10 nM)
